Target: IRAK4 (Homo sapiens, UniProt Q9NWZ3)
Sequence (Q9NWZ3 1-460): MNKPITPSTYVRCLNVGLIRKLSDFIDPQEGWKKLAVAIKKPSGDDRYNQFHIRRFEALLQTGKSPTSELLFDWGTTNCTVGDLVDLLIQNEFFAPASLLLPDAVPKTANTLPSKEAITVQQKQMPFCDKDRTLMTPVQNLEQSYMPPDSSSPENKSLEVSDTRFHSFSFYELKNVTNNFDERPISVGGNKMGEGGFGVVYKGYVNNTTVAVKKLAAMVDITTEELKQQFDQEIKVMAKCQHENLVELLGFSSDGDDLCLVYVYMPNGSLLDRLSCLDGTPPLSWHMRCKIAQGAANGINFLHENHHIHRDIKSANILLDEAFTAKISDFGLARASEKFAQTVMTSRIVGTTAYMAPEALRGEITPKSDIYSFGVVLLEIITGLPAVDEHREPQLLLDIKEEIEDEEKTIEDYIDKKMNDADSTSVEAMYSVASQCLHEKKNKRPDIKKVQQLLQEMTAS
Assay: Reaction Biology NanoBRET target engagement assay in HEK-293 cells, IRAK4
Conditions: NanoBRET IRAK4 IC50, HEK-293 cells
Value type: IC50

Report IC50 for each item below.
1. COc1cc2ncc(-c3cncc(N[C@H]4CNC[C@@H]4F)n3)n2nc1C1CC1
2. CC(C)Oc1ccn2c(-c3ccnc(N[C@H]4CNC[C@@H]4F)n3)cnc2c1
3. COc1cc2ncc(-c3ccnc(N[C@H]4CNCC[C@@H]4F)n3)n2cc1C(C)(C)O
4. CC(O)(c1cn2c(-c3ccnc(N[C@H]4CNCC[C@@H]4F)n3)cnc2cn1)C(F)(F)F (single isomer, unassigned) [Compound 72]

Response line:
9 nM
< 0.5 nM
< 0.5 nM
< 0.5 nM

Values from patent US20250154144A1
